target of assay: GDP-KRAS G12D mutant protein (Homo sapiens, UniProt P01116, G12D)
Construct: purchased Daegu Gyeongbuk Medical Innovation Foundation (DGMIF), made to order
assay explanation: Differential scanning fluorimetry (DSF) binding affinity to GDP-KRAS G12D mutant protein
assay setup: DSF thermal shift, 10 μM compound, 4 μg KRAS protein
quantity name: GDP-KRAS G12D (ΔTmD, ° C.) (°C)

- smiles record: "C#Cc1c(F)ccc2cc(O)cc(-c3cc4nc(OCC5(CN6CCOCC6)CC5)nc(N5C[C@H]6CC[C@@H](C5)N6)c4n4ccnc34)c12"
  quantity name: "GDP-KRAS G12D (ΔTmD, ° C.)"
  u: "°C"
  quantitative readout: 8.57
- smiles record: "Oc1cc(-c2cc3nc(OC[C@@]45CCCN4C[C@H](F)C5)nc(N4C[C@H]5CC[C@@H](C4)N5)c3n3ccnc23)c2c(F)c(F)ccc2c1"
  quantity name: "GDP-KRAS G12D (ΔTmD, ° C.)"
  u: "°C"
  quantitative readout: 6.05
- smiles record: "C#Cc1c(F)ccc2cc(N)cc(-c3cc4nc(OCC5(CN6CCC7(CC6)CC7(F)F)CC5)nc(N5C[C@H]6CC[C@@H](C5)N6)c4c4cn(C)nc34)c12"
  quantity name: "GDP-KRAS G12D (ΔTmD, ° C.)"
  u: "°C"
  quantitative readout: 5.17
- smiles record: "Cn1cc2c(n1)c(-c1cc(O)cc3ccc(F)c(F)c13)cc1nc(OC[C@@]34CCCN3C/C(=C\\F)C4)nc(N3C[C@H]4CC[C@@H](C3)N4)c12"
  quantity name: "GDP-KRAS G12D (ΔTmD, ° C.)"
  u: "°C"
  quantitative readout: 8.13
- smiles record: "Cc1cc2c(o1)c(-c1nc(N)ccc1C(F)(F)F)c(F)c1nc(OC[C@@]34CCCN3C[C@H](F)C4)nc(N3C[C@H]4CC[C@@H](C3)N4)c12"
  quantity name: "GDP-KRAS G12D (ΔTmD, ° C.)"
  u: "°C"
  quantitative readout: 0.58
- smiles record: "C#Cc1c(F)ccc2cccc(-c3cc4nc(OC[C@@]56CCCN5C/C(=C\\F)C6)nc(N5[C@@H]6CC[C@H]5CNC6)c4n4ccnc34)c12"
  quantity name: "GDP-KRAS G12D (ΔTmD, ° C.)"
  u: "°C"
  quantitative readout: 4.28
- smiles record: "Cc1cc2c(o1)c(-c1nc(N)cc(C)c1C(F)(F)F)c(F)c1nc(OC[C@@]34CCCN3C[C@H](F)C4)nc(N3C[C@H]4CC[C@@H](C3)N4)c12"
  quantity name: "GDP-KRAS G12D (ΔTmD, ° C.)"
  u: "°C"
  quantitative readout: 0.87

---

target of assay: GppNHp-KRAS G12D mutant protein (Homo sapiens, UniProt P01116, G12D)
Construct: purchased Daegu Gyeongbuk Medical Innovation Foundation (DGMIF), made to order
assay explanation: Differential scanning fluorimetry (DSF) binding affinity to GppNHp-KRAS G12D mutant protein
assay setup: DSF thermal shift, 10 μM compound, 4 μg KRAS protein, 50 mM HEPES (pH 7.5)
The entries below come with measured GppNHp-KRAS G12D (ΔTmD, ° C.) values attached.

- smiles record: "C#Cc1c(F)ccc2cc(N)cc(-c3c(F)c4nc(OCC5(CN6CCC7(CC6)CC7(F)F)CC5)nc(N5C[C@H]6CC[C@@H](C5)N6)c4c4cc(C)oc34)c12"
  target of assay: "GppNHp-KRAS G12D mutant protein (Homo sapiens, UniProt P01116, G12D)"
  u: "°C"
  GppNHp-KRAS G12D (ΔTmD, ° C.): 1.92
- smiles record: "Cc1cc2[nH]ncc2c(-c2cc3nc(OC[C@@]45CCCN4C[C@H](F)C5)nc(N4C[C@H]5CC[C@@H](C4)N5)c3n3ccnc23)c1C(F)(F)F"
  target of assay: "GppNHp-KRAS G12D mutant protein (Homo sapiens, UniProt P01116, G12D)"
  u: "°C"
  GppNHp-KRAS G12D (ΔTmD, ° C.): 1.01
- smiles record: "C#Cc1c(F)ccc2cc(O)cc(-c3cc4nc(OCC5(CN6CCOCC6)CC5)nc(N5C[C@H]6CC[C@@H](C5)N6)c4n4ccnc34)c12"
  target of assay: "GppNHp-KRAS G12D mutant protein (Homo sapiens, UniProt P01116, G12D)"
  u: "°C"
  GppNHp-KRAS G12D (ΔTmD, ° C.): 3.24
- smiles record: "C#Cc1c(F)ccc2cc(N)cc(-c3c(F)c4nc(OC[C@@]56CCCN5C[C@H](F)C6)nc(N5C[C@H]6CC[C@@H](C5)N6)c4c4cn(C)nc34)c12"
  target of assay: "GppNHp-KRAS G12D mutant protein (Homo sapiens, UniProt P01116, G12D)"
  u: "°C"
  GppNHp-KRAS G12D (ΔTmD, ° C.): 6.66
- smiles record: "Cn1cc2c(n1)c(-c1cc(O)cc3ccc(F)c(F)c13)c(F)c1nc(OC[C@@]34CCCN3C/C(=C\\F)C4)nc(N3C[C@H]4CC[C@@H](C3)N4)c12"
  target of assay: "GppNHp-KRAS G12D mutant protein (Homo sapiens, UniProt P01116, G12D)"
  u: "°C"
  GppNHp-KRAS G12D (ΔTmD, ° C.): 10.69

Source: patent US20260209249A1
